- Tested on: THRa:RXRa (NR concentration 90 nM, RXRa partner concentration 90 nM)
- Assay overview: PBM binding z-score (relative to random genomic background probes); higher = stronger binding; sequences stand for … in GC…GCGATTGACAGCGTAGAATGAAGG
Below, each entry is listed with its recorded PBM binding z-score.
Measurement type: PBM binding z-score

- Seq text: "AATACAGGGTCATCGAAGGCCAGAGTACGCACAG"
  Measurement type: "PBM binding z-score"
  Observed measurement: 4.62
- Seq text: "TAGCCTAGGTCATTCAGGGGCCAGTACAGAAAGC"
  Measurement type: "PBM binding z-score"
  Observed measurement: 3.4
- Seq text: "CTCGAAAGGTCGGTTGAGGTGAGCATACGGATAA"
  Measurement type: "PBM binding z-score"
  Observed measurement: 5.04
- Seq text: "ACAATTAGTTGAGACGAGGGCAACCGATAGGTTG"
  Measurement type: "PBM binding z-score"
  Observed measurement: 2.74
- Seq text: "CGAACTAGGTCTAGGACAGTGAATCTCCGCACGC"
  Measurement type: "PBM binding z-score"
  Observed measurement: 0.316
- Seq text: "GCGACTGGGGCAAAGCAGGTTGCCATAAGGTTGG"
  Measurement type: "PBM binding z-score"
  Observed measurement: 1.59
- Seq text: "TCTCCGAGGACACGAAAGGTCAGAGCTCGACATC"
  Measurement type: "PBM binding z-score"
  Observed measurement: 4.36
- Seq text: "GCAGACAGGTGAAACGCAGATAACTCAGGGTGGC"
  Measurement type: "PBM binding z-score"
  Observed measurement: 0.121
- Seq text: "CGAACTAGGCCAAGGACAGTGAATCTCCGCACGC"
  Measurement type: "PBM binding z-score"
  Observed measurement: 1.35
- Seq text: "ATCGAAAGGTCGACGATGTGAGTATACACCGTTT"
  Measurement type: "PBM binding z-score"
  Observed measurement: 1.91
- Seq text: "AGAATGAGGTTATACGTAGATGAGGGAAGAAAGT"
  Measurement type: "PBM binding z-score"
  Observed measurement: 2.26
- Seq text: "TCCTGTAGATCAAGCAGGTTAAGAAAGCCTGAGT"
  Measurement type: "PBM binding z-score"
  Observed measurement: 0.254

###

- Tested on: LXRa:RXRa (NR concentration 270 nM, RXRa partner concentration 90 nM)
- Assay overview: PBM binding z-score (relative to random genomic background probes); higher = stronger binding; sequences stand for … in GC…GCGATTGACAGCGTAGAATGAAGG
Below, each entry is listed with its recorded PBM binding z-score.

- Seq text: "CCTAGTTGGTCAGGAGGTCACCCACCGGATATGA"
  PBM binding z-score: 3.31
- Seq text: "CCTCGGAGGACAACAGGAGGTTAGAGCTGCCAGA"
  PBM binding z-score: -0.0847
- Seq text: "CAGCCTAGGTCAGGGCCAGAATAGGAGGAACGTT"
  PBM binding z-score: 0.905
- Seq text: "GCTAGTAGATCAAGGTTAAGAAAGACTAAGCTAA"
  PBM binding z-score: 0.637
- Seq text: "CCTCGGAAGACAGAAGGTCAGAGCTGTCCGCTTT"
  PBM binding z-score: 1.6
- Seq text: "TCGAGGAGGTTAGGGGCATTCAGAATGGCGTCGA"
  PBM binding z-score: 0.91
- Seq text: "CCTTACGGGTCACTGAGAGGTTATAGCATTTGGA"
  PBM binding z-score: 4.71
- Seq text: "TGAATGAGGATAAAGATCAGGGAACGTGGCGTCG"
  PBM binding z-score: -0.419
- Seq text: "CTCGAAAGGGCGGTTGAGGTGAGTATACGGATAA"
  PBM binding z-score: -0.197
- Seq text: "CTACCAAGGTGAACAAGGTCGGTGATTACTATTC"
  PBM binding z-score: 0.251
- Seq text: "TCTTGTAGATCTGCAGGTTAAGAAAGCTGGCCAA"
  PBM binding z-score: 0.396
- Seq text: "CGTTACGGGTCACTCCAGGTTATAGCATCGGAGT"
  PBM binding z-score: 7.62

The measurements presented in this section are drawn from the supplement of paper PMC6555819.
